System: T. b. brucei S427WT
Assay: Alamar blue (resazurin) assay, T. b. brucei s427 wild-type
Type: cell-based, Trypanosoma b. brucei
Settings: Table 5; purified compounds; n = 3
pEC50: −log10 of the molar value.
Measured Property: pEC50

* CC(CC/C=C(/CO)C(=O)O)C1CCC2(C)C3CCC4C(C)(C)C(O)CCC45CC35CCC12C (centres unmarked) [Hydroxymangiferolic acid, 27-hydroxyisomangiferolic acid] | 4.54
* CC(C)(O)[C@@H]1CC[C@]2(CO)CC[C@]3(C)[C@H](CC[C@@H]4[C@@]5(C)CC[C@H](O)C(C)(C)[C@@H]5CC[C@]43C)[C@@H]12 [Hydroxybetulin, 20-hydroxybetulin] | 5.35

* * *

System: T. congolense IL3000
Test: Antiprotozoal assay, drug-sensitive T. congolense IL3000
Format: cell-based, Trypanosoma congolense
Details: Trypanosoma congolense, read-out: AVG EC50 T. congolense IL3000, Table 6; diminazene control, footnote: EC50 in µM
Measured Property: EC50 (µM)

- N=C(N)c1ccc(/N=N/Nc2ccc(C(=N)N)cc2)cc1 [Diminazene, reference compound]: 0.26

* * *

System: U937 cells
Test: Cytotoxicity against U937 cells (resazurin)
Assay type: cell-based, human
Conditions: U937 vs T. b. brucei WT
Measured Property: SI, selectivity index relative to T. b. brucei WT: EC50(U937)/EC50(TbbWT)

* C=C(C)[C@@H]1CC[C@]2(CO)CC[C@]3(C)[C@H](CC[C@@H]4[C@@]5(C)CC[C@H](O)C(C)(C)[C@@H]5CC[C@]43C)[C@@H]12 | 2.1
* C=C(C)[C@@H]1CC[C@]2(C(=O)O)CC[C@]3(C)[C@H](CC[C@@H]4[C@@]5(C)CC[C@H](O)C(C)(C)[C@@H]5CC[C@]43C)[C@@H]12 | 2.1
* CC(C)(O)[C@@H]1CC[C@]2(CO)CC[C@]3(C)[C@H](CC[C@@H]4[C@@]5(C)CC[C@H](O)C(C)(C)[C@@H]5CC[C@]43C)[C@@H]12 [Hydroxybetulin, 20-hydroxybetulin] | 23.0
* C[C@H]1[C@H](C)CC[C@]2(C(=O)O)CC[C@]3(C)C(=CC[C@@H]4[C@@]5(C)C[C@@H](O)[C@H](O)[C@@](C)(CO)[C@@H]5[C@H](O)C[C@]43C)[C@H]12 | 5.0
